- Procedure details: Pharmacokinetics in male beagle dogs (plasma)
- Format: in vivo, dog
- Measurement context: male, beagle, plasma, po; PK 2: P.O., 300 mg per dog, uncoated gelatin capsule
- Description: […] In PK 1, the plasma samples were extracted by protein precipitation prior to analysis. […] Separation was performed on a 5 cm C18 UPLC column, detection and quantification were performed on a quadrupole time-of-flight (QTof) mass spectrometer in the positive ion mode. […] Concentrations of 2-octynoHA was quantified based on the calibration curve. In the PK 1, 2-octynoHA was detected at the m/z 156.1 with the retention time (RT) of 4.12 min. […]
Value kind: Tmax (min)
State just the number; it will be interpreted in min.

Consider the compound CCCCCC#CC(=O)NO [2-octynoHA, N-hydroxyoct-2-ynamide] and give its measured Tmax.
30
